- TARGET: FRMPD2_1, Q68DX3
- Sequence (Q68DX3 770-861): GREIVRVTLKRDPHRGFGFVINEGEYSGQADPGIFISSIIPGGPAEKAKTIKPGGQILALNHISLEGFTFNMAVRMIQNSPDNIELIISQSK
- PROTOCOL TEXT: holdup assay
- Design: key: below the threshold = too weak to quantify, mostly under pKd 3.1 to 4
- EXPERIMENTAL SETUP: plain residues with an end cap or a label only (N-terminal biotin on a linker: ado-ado)
MEASURED PARAMETER: pKd

// solved cases for pKd follow
SLNANEVEWF [RNF130, Q86XS8] ... below the threshold
RFQQRMQTHV [KIRREL1, Q96J84] ... below the threshold
NTLNRKTTPV [CACNG8, Q8WXS5] ... below the threshold
EDPRVEVTQF [SLC22A9, Q8IVM8] ... below the threshold
DFLSTFHIRI [CIB2, O75838] ... below the threshold

[in] State the recorded pKd for this entry: PYPTADHMLA [JUP, P14923]
[out] below the threshold

[in] Would you kindly share the measured pKd for EIPAQSPTCV [FZD10, Q9ULW2] ?
[out] 3.92

[in] Please give the measured pKd for this binder: MHIQEKGFHV [EPHA6, Q9UF33]
[out] below the threshold

Source listed as paper PMC9482650.
